target: human 20S proteasome, caspase-like activity (Homo sapiens); assay: 20S proteasome assay, caspase-like activity ((Z)-LLEbNA); conditions: activator PA28; (Z)-LLEbNA 20 μM; read-out: IC50, caspase-like activity of PA28-activated 20S proteasome
pIC50: −log10 of the molar value.
metric: pIC50

Ask: Give human 20S proteasome, caspase-like activity (Homo sapiens) pIC50 for the following molecule: C=CC(=O)N1C/C(=C\c2ccc([N+](=O)[O-])cc2)C(=O)/C(=C/c2ccc([N+](=O)[O-])cc2)C1 [b-AP15]
Result: < 4.32

---

target: human 19S regulatory particles (Homo sapiens, UniProt P54578+Q9Y5K5); experiment: 19S regulatory particle de-ubiquitinase assay (ub-AMC); conditions: 19S 2.9 nM; ub-AMC 1 μM; read-out: IC50, deubiquitinase activities of the 19S regulatory particles
metric: IC50 (µM)
Please reply with the bare figure in µM and do not write the unit itself.

Ask: Identify IC50 associated with the compound C=CC(=O)N1C/C(=C\c2ccc([N+](=O)[O-])cc2)C(=O)/C(=C/c2ccc([N+](=O)[O-])cc2)C1 [b-AP15]
Result: 15.2

These measurements were taken from paper PMC4279163.
